RUN_PARAMETERS: 308.15 K; 101 kPa; Liquid; Pycnometric method
Entries and their measured mass density follow.

| COMPOUND | UNIT_ABBREV | mass density |
| --- | --- | --- |
| CCCCOC(C)=O [butyl ethanoate] | kg/m3 | 866.2 |
| CC1OC(C)OC(C)O1 (centres undefined) | kg/m3 | 976.4 |
| CCOC(C)=O [ethyl acetate] | kg/m3 | 881.2 |
| COC(C)=O [methyl ethanoate] | kg/m3 | 916.2 |

---

RUN_PARAMETERS: 303.15 K; 101 kPa; Liquid; Pycnometric method
OUTCOME_MEASURE: mass density (kg/m3)

| COMPOUND | OUTCOME_MEASURE | QUANTITATIVE_READOUT |
| --- | --- | --- |
| CCOC(C)=O [ethyl acetate] | mass density | 887.6 |
| COC(C)=O [methyl ethanoate] | mass density | 919.7 |
| CCCCOC(C)=O [butyl ethanoate] | mass density | 871.3 |
| CC1OC(C)OC(C)O1 (centres undefined) [2,4,6-trimethyl-1,3,5-trioxane] | mass density | 982.6 |
